B1: Pistol ribozyme (parent)
chain: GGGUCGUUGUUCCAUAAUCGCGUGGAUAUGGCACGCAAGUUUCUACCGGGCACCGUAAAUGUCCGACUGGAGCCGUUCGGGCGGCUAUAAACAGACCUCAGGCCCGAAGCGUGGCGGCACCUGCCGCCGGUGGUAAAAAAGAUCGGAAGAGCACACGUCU

Variants of: B1
test summary: aptazyme ON/OFF ratio, guanine; higher = stronger switching; co-transcriptional cleavage with and without guanine
Hi there, I'd appreciate the recorded aptazyme ON/OFF ratio for every entry that follows.
Answer with a bare number; do not write a unit.

stdin: Returns the measured aptazyme ON/OFF ratio for the input variant. Input: U7C U8C G9A U10G U11A C13A
stdout: 1.1

stdin: aptazyme ON/OFF ratio lookup needed for U7G U8C G9C U10C U11C C12U C13U , thanks.
stdout: 1.03

stdin: What does the data say about its aptazyme ON/OFF ratio? Entry: U7G G9U U10G U11A C13G
stdout: 1.16

stdin: Which aptazyme ON/OFF ratio is listed for U7G U11G ?
stdout: 1.32

stdin: Tell me the measured aptazyme ON/OFF ratio of U8G G9A U10G U11G C12G C13U , please.
stdout: 1.37

stdin: Reported aptazyme ON/OFF ratio, variant U7G U8G U10G U11G C12U : ____
stdout: 1.36

stdin: I have this variant here, U8G G9A U10C U11A C12A C13U , and I need its recorded aptazyme ON/OFF ratio.
stdout: 1.16

stdin: Name the recorded aptazyme ON/OFF ratio for U7G U10A C12U C13A .
stdout: 1.2

stdin: Would you kindly share the measured aptazyme ON/OFF ratio for G9U U10G U11C C12G ?
stdout: 1.65

stdin: Could you tell me which aptazyme ON/OFF ratio is on file for U7A U8A U10C C12U C13A ?
stdout: 1.05

stdin: Form field: reported aptazyme ON/OFF ratio of U7A U8C G9C U11C C12A C13G
stdout: 1.04

stdin: Which aptazyme ON/OFF ratio is reported for this variant? U7C G9U U10A U11A C13A
stdout: 1.26

stdin: Which aptazyme ON/OFF ratio value is on record for U7A U8C G9U U10G U11G C12G ?
stdout: 1.22

stdin: Which aptazyme ON/OFF ratio value is on record for U7G U8A G9U U11A C12A C13A ?
stdout: 1.16

stdin: Fill in the blank: the reported aptazyme ON/OFF ratio of U7C U8A G9U U10C C12G C13G is ____.
stdout: 1.28

stdin: Field request: aptazyme ON/OFF ratio | item: U7G C12G C13G
stdout: 1.14

stdin: Could you share which aptazyme ON/OFF ratio value was measured for U7G U10A U11C C13A ?
stdout: 1.04

stdin: aptazyme ON/OFF ratio lookup needed for U7G G9C U10A U11A C12G C13G , thanks.
stdout: 1.15

stdin: Which aptazyme ON/OFF ratio reading was recorded for the variant U7C G9U U11G C12U C13U ?
stdout: 1.3

stdin: Would you kindly share the measured aptazyme ON/OFF ratio for U7G U8G G9U U10A U11A C12U C13A ?
stdout: 1.11

stdin: So what does the record say about aptazyme ON/OFF ratio for U7G U8C G9C U10C C12U C13A ?
stdout: 1.07

stdin: Item U8C U10A C12U C13U has what recorded aptazyme ON/OFF ratio?
stdout: 1.32

stdin: Give the measured aptazyme ON/OFF ratio of U7C G9C U10G U11C C12U .
stdout: 1.11

stdin: For the variant shown here, U10G U11A C12A , give the reported aptazyme ON/OFF ratio.
stdout: 1.39

stdin: Using the record for U7G U8C G9A U11G , report its aptazyme ON/OFF ratio.
stdout: 1.3

stdin: # aptazyme ON/OFF ratio lookup, item U7A G9A U10C U11A C13A
stdout: 1.15

stdin: // returns reported aptazyme ON/OFF ratio for input U7C U8A U10G U11C
stdout: 1.07

stdin: Param item = U7C G9A U10A U11C C12A C13U ; retrieve measured aptazyme ON/OFF ratio.
stdout: 1.24

stdin: What does the data say about its aptazyme ON/OFF ratio? Entry: U8C G9U U11C
stdout: 1.07

stdin: aptazyme ON/OFF ratio lookup needed for U7C U8A G9U U11G C12G , thanks.
stdout: 1.15

stdin: What measured aptazyme ON/OFF ratio goes with U7A U8A G9A U11C C12U C13U ?
stdout: 1.08

stdin: What does the data say about its aptazyme ON/OFF ratio? Entry: U7G U8A U10C U11A C12U C13U
stdout: 1.34

stdin: Any idea what aptazyme ON/OFF ratio was measured for U8A G9C U10A C13A ?
stdout: 1.15

stdin: Recorded aptazyme ON/OFF ratio of U7A U8G G9A U10C C12A C13U , please.
stdout: 1.12

stdin: Need aptazyme ON/OFF ratio, item U7A U8G G9U U10C U11C C13A
stdout: 1.04

stdin: Any idea what aptazyme ON/OFF ratio was measured for U7G U8G G9A U10G U11G C12A C13G ?
stdout: 1.15

stdin: Param item = U7A U8C G9C U10C C13G ; retrieve measured aptazyme ON/OFF ratio.
stdout: 1.07

stdin: Would you mind telling me what aptazyme ON/OFF ratio value was observed for U7G U8A G9C U10A U11A C12A C13A ?
stdout: 1.04

stdin: I would be grateful if you could share the reported aptazyme ON/OFF ratio for U7A U8A G9U U10C U11G C12G .
stdout: 1.15

stdin: State the recorded aptazyme ON/OFF ratio for this entry: U7C U8A G9U
stdout: 1.59

stdin: Any idea what its aptazyme ON/OFF ratio is? The variant is U7G U8G C12U C13U
stdout: 1.5

stdin: Which value of aptazyme ON/OFF ratio has been reported for U7A U8C G9A U10C U11C C12U in the records?
stdout: 1.04

stdin: Any idea what aptazyme ON/OFF ratio was measured for U7C U8A G9A U10G U11G C13U ?
stdout: 1.04

stdin: Need aptazyme ON/OFF ratio of U7A U8G C12A , thanks.
stdout: 1.22

stdin: Which aptazyme ON/OFF ratio is listed for U8G G9U U10A U11C C12A ?
stdout: 1.12

stdin: Reported aptazyme ON/OFF ratio, variant U7C U8G G9A C12U C13U : ____
stdout: 1.22

stdin: State the recorded aptazyme ON/OFF ratio for this entry: U8A G9A C12A C13A
stdout: 1.3

stdin: Value lookup for aptazyme ON/OFF ratio; key = U7A U8G G9A U11A C12G C13A
stdout: 1.19

stdin: Field request: aptazyme ON/OFF ratio | item: U7A U8A G9C U11G C12U C13G
stdout: 1.23

stdin: # query: aptazyme ON/OFF ratio of entry U7G U8C G9A U10C U11G C12U C13A
stdout: 1.26

stdin: Sample U7G G9C U10C U11C — what was its aptazyme ON/OFF ratio?
stdout: 1.17

stdin: # query: aptazyme ON/OFF ratio of entry U7C G9A U10C U11A C12A C13U
stdout: 1.16

stdin: So what's the measured aptazyme ON/OFF ratio for this one? U7G U8G G9A U11G C12G C13G
stdout: 1.12

stdin: Given G9C U10G U11C C12A C13A , state its recorded aptazyme ON/OFF ratio.
stdout: 1.22

stdin: Query: aptazyme ON/OFF ratio; subject: U7C U8G G9U U10G U11A C13A
stdout: 1.1

stdin: So what's the measured aptazyme ON/OFF ratio for this one? U7G U8G G9C U10C U11G C13U
stdout: 1.3

stdin: Quick one: aptazyme ON/OFF ratio of U8C G9A U10A U11C C12A C13A ?
stdout: 1.17

stdin: Consider the variant shown here: G9U U10C U11A C12G What is its recorded aptazyme ON/OFF ratio?
stdout: 1.76

stdin: Report aptazyme ON/OFF ratio for U8C G9A U10C U11G C12G C13G please.
stdout: 1.23

stdin: Which value of aptazyme ON/OFF ratio has been reported for U8C G9A U10C C12U C13A in the records?
stdout: 1.29

stdin: Returns the measured aptazyme ON/OFF ratio for the input variant. Input: U7A U8A U10G U11C C12U C13G
stdout: 1.48

stdin: Quick one: aptazyme ON/OFF ratio of U7C U8C U10C C13A ?
stdout: 1.24

stdin: Given U7G U8A G9C U10C U11G C12U C13U , state its recorded aptazyme ON/OFF ratio.
stdout: 1.04

stdin: Can you look up the measured aptazyme ON/OFF ratio of U7C U8G G9A U10G U11G C12U C13U for me?
stdout: 1.22

stdin: State the recorded aptazyme ON/OFF ratio for this entry: U7A U8C G9U U10G U11C C12A C13A
stdout: 1.14

stdin: Give its aptazyme ON/OFF ratio value. Item: G9U U11G C12G C13U
stdout: 1.21

stdin: Data request, read-out aptazyme ON/OFF ratio, for U7A U8G U10A U11A C12G C13U
stdout: 1.63

stdin: Tell me the measured aptazyme ON/OFF ratio of U7G U8G G9U U10G C12A , please.
stdout: 1.44

stdin: Give its aptazyme ON/OFF ratio value. Item: U7G U8G U10C U11C C12U C13A
stdout: 1.29

stdin: Looking for the measured aptazyme ON/OFF ratio of U7C U8C G9A U10A C13U , can you help?
stdout: 2.14

stdin: Given the entry U7A U8A G9U U11G C12G C13A , report its measured aptazyme ON/OFF ratio.
stdout: 1.22

stdin: Could you share which aptazyme ON/OFF ratio value was measured for U7C U8G G9C U10C U11G C12G C13G ?
stdout: 1.09

stdin: What aptazyme ON/OFF ratio value was documented for this variant, U7C U8C G9U U10A U11G C13G ?
stdout: 1.11

stdin: Which aptazyme ON/OFF ratio value is on record for U7C U8G G9U U10A C12G C13A ?
stdout: 1.13

stdin: Suppose we examine the variant U7C U8G U10G U11A C12G C13A ; what aptazyme ON/OFF ratio value has been reported?
stdout: 1.1

stdin: Endpoint output: aptazyme ON/OFF ratio of U8G G9C C12A C13U . Value?
stdout: 1.07

stdin: What measured aptazyme ON/OFF ratio goes with U7A G9C U10A U11A C12U C13G ?
stdout: 1.1

stdin: // query aptazyme ON/OFF ratio value for entry U7G U8G U11G C12A C13A
stdout: 1.24

stdin: Consider the variant U7C U8C G9C U10G U11G C12U C13U and give its measured aptazyme ON/OFF ratio.
stdout: 1.06

stdin: If you can, please state the reported aptazyme ON/OFF ratio value of U11G C12U C13A .
stdout: 1.1

stdin: Given the variant U8G G9A U11A C13G , what is its reported aptazyme ON/OFF ratio?
stdout: 1.07

stdin: Returns the measured aptazyme ON/OFF ratio for the input variant. Input: U7G U8G G9C U10A C13G
stdout: 1.01

stdin: For U7A G9A U10A U11A , what is its reported aptazyme ON/OFF ratio?
stdout: 1.34

stdin: For U7C U8A G9U U10C C12G C13A , what is its reported aptazyme ON/OFF ratio?
stdout: 1.18

stdin: What value of aptazyme ON/OFF ratio has been reported for the following variant? U7G U8A U11C C13A
stdout: 1.32

stdin: Value lookup for aptazyme ON/OFF ratio; key = U8A G9A U10G U11A C13U
stdout: 1.06

stdin: I am curious: what aptazyme ON/OFF ratio value has been reported for U7C U8C G9C C13U ?
stdout: 1.05

stdin: What measured aptazyme ON/OFF ratio goes with U10C U11A C12A C13A ?
stdout: 1.37

stdin: Quick check: aptazyme ON/OFF ratio of U7A G9A U10G U11A C12A C13U ?
stdout: 1.21

stdin: Data request, read-out aptazyme ON/OFF ratio, for U7C U8C U10C C12U C13U
stdout: 1.45

stdin: Fill blank: measured aptazyme ON/OFF ratio of the variant U7G U8C G9U U10A U11G C12G C13U is ____.
stdout: 1.1
